Recorded growth, one value per entry.
Test system: SN12C renal
Assay text: NCI-60 one-dose screen, 48 h (100 = growth as untreated, 0 = no growth, -100 = all killed)
Run conditions: 10 µM unless noted
Description: Growth inhibition of the SN12C human tumor cell line is measured as a screen for anti-cancer activity. Cells are grown in 96 well plates and exposed to the test compound for 48 hours. Compounds are tested at a single concentration, which is 10^-5 M for most compounds. The reported endpoint is percent growth (GI% or GIPRCNT), where numbers from 0 - 100% represent growth inhibition, and numbers from -100% - 0 represent cell death. For example, a value of 40 represents 60% growth inhibition. […]
Compounds without any hit were thinned out: in the full panel of roughly 83,000, 20% have a hit. Active and inactive are the calls of the source. How the source made its calls: active means growth percent below 10; inactive means the rest.

C#CCOc1ccc2ncnc(Nc3cccc(CNC(=O)C=C)c3)c2c1 | 95.5% [8.25 µM] (inactive)
C=CCSSC1N=CNc2nc[nH]c21 (centres undefined) | 72.9% (inactive)
CCOC(=O)c1c(C(=O)OCC)c2cc(-c3ccn4c(C(=O)c5ccccc5)c(C(=O)OCC)c(C(=O)OCC)c4c3)ccn2c1C(=O)c1ccccc1 | 93.6% (inactive)

Incoming: Annotate the compound `COc1ccc(-c2cc(-c3ccc(Nc4ccnc5cc(Cl)ccc45)cc3)nc(N3CCOCC3)n2)cc1` with its measured growth.
Outgoing: 49.2% (inactive)

Incoming: Find the measured growth of `O=C(COc1cccc(/C=C2\CSc3ccccc3C2=O)c1)Nc1nccs1` and report it.
Outgoing: 89.4% (inactive)

Incoming: Specify reported growth for the compound shown: `O=C1c2cc3c(cc2-c2c1c1ccc(Cl)cc1c(=O)n2CCCN1CCOCC1)OCO3`
Outgoing: 46.3% (inactive)

Incoming: Supply measured growth of `COc1cc(/C=C/C(=O)c2ccc(O)c(CN3CCN(c4cc5c(cc4F)c(=O)c(C(=O)O)cn5C4CC4)CC3)c2)cc(OC)c1OC` in your reply.
Outgoing: 38.2% (inactive)

Incoming: Note growth for the compound shown: `COc1ccc(S(=O)(=O)N2CCN(C)CC2)cc1NC(=O)c1[nH]c(C)c2c1CCCCC2=O`
Outgoing: 60.4% (inactive)

Incoming: Answer with the recorded growth of `Nc1nc2ncc(CCNc3ccc(C(=O)O)cc3)nc2c(=O)[nH]1` only.
Outgoing: 106% (inactive)
